test: total protein half-life in vivo (active degradation + dilution); higher = more stable protein; conditions: wild type E. coli NCM3722; growth: P-lim chemostat; doubling time 6 h
Label scheme for total protein half-life in vivo: lower than 6 h is 0 (no), 6 h and above is 1 (yes).

-- ask hey, is total protein half-life in vivo for this one >= 6 h? MSELNDLLTTRELQRWRLILGEAAETTLCGLDDNARQIDHALEWLYGRDPERLQRGERSGGLGGSNLTTPEWINSIHTLFPQQVIERLESDAVLRYGIEDVVTNLDVLERMQPSESLLRAVLHTKHLMNPEVLAAARRIVCQVVEEIMARLAKEVRQAFSGVRDRRRRSFIPLARNFDFKSTLRANLQHWHPQHGKLYIESPRFNSRIKRQSEQWQLVLLVDQSGSMVDSVIHSAVMAACLWQLPGIRTHLVAFDTSVVDLTADVADPVELLMKVQLGGGTNIASAVEYGRQLIEQPAKSVIILVSDFYEGGSSSLLTHQVKKCVQSGIKVLGLAALDSTATPCYDRDTAQALVNVGAQIAAMTPGELASWLAENLQS
-- reply 1 (yes)

-- ask For this sequence, is measured total protein half-life in vivo 6 h or higher? MAFKIWQIGLHLQQQEAVAVAIVRGAKECFLQRWWRLPLENDIIKDGRIVDAQQLAKTLLPWSRELPQRHHIMLAFPASRTLQRSFPRPSMSLGEREQTAWLSGTMARELDMDPDSLRFDYSEDSLSPAYNVTAAQSKELATLLTLAERLRVHVSAITPDASALQRFLPFLPSHQQCLAWRDNEQWLWATRYSWGRKLAVGMTSAKELAAALSVDPESVAICGEGGFDPWEAVSVRQPPLPPPGGDFAIALGLALGKAY
-- reply 0 (no)

-- ask Can MGKSIVVVSAVNFTTGGPFTILKKFLAATNNKENVSFIALVHSAKELKESYPWVKFIEFPEVKGSWLKRLHFEYVVCKKLSKELNATHWICLHDITANVVTKKRYVYCHNPAPFYKGILFREILMEPSFFLFKMLYGLIYKINIKKNTAVFVQQFWMKEKFIKKYSINNIIVSRPEIKLSDKSQLTDDDSQFKNNPSELTIFYPAVPRVFKNYELIISAARKLKEQSNIKFLLTISGTENAYAKYIISLAEGLDNVHFLGYLDKEKIDHCYNISDIVCFPSRLETWGLPLSEAKERGKWVLASDFPFTRETLGSYEKKAFFDSNNDDMLVKLIIDFKKGNLKKDISDANFIYRNENVLVGFDELVNFITEEH be said to have total protein half-life in vivo at or above 6 h?
-- reply 1 (yes)

-- ask Is total protein half-life in vivo at least 6 h? Consider MSKCSADETPVCCCMDVGTIMDNSDCTASYSRVFANRAEAEQTLAALTEKARSVESEPCKITPTFTEESDGVRLDIDFTFACEAEMLIFQLGLR [P0AD33]
-- reply 0 (no)

-- ask # bool: total protein half-life in vivo of MQCALYDAGRCRSCQWIMQPIPEQLSAKTADLKNLLADFPVEEWCAPVSGPEQGFRNKAKMVVSGSVEKPLLGMLHRDGTPEDLCDCPLYPASFAPVFAALKPFIARAGLTPYNVARKRGELKYILLTESQSDGGMMLRFVLRSDTKLAQLRKALPWLHEQLPQLKVITVNIQPVHMAIMEGETEIYLTEQQALAERFNDVPLWIRPQSFFQTNPAVASQLYATARDWVRQLPVKHMWDLFCGVGGFGLHCATPDMQLTGIEIASEAIACAKQSAAELGLTRLQFQALDSTQFATAQGDVPELVLVNPPRRGIGKPLCDYLSTMAPRFIIYSSCNAQTMAKDIRELPGFRIERVQLFDMFPHTAHYEVLTLLVKQ >= 6 h
-- reply 0 (no)
